Kindly supply the reported IC50 ratio rat/human values for the records listed here.
# measured.target: T1, rat PAI-1 (rat, UniProt P20961 24-402)
# T1 sequence: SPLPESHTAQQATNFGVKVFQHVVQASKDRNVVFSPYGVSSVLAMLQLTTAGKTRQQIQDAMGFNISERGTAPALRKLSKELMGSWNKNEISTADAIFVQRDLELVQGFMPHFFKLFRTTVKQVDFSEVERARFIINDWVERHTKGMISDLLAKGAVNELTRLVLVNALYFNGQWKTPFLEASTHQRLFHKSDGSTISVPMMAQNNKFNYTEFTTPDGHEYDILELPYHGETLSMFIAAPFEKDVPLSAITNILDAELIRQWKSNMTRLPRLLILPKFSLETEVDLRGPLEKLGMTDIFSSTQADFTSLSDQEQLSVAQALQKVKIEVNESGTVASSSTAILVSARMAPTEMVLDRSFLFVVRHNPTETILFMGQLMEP
# method: cell-based or functional assay
Numbers only.

// solved cases for IC50 ratio rat/human follow
binder	IC50 ratio rat/human
Antibody 22, scFv (scFv, V domains shown) VH: QVQLQQSGAEVKKPGSSVKVSCKASGGTFSGYAISWVRQAPGQGLEWMGGIIPTFGTANYSQKFQGRVTITADESTSTAYMELSGLRSEDTAVYYCAREKRQWLEGHFDYWGRGTPVTVSS VL: DIQMTQSLSFLSASIGDRVTITCRASEGIYHALAWYQQKPGKAPKLLIYRASSLASGAPSRFSGSGSGTDFTLTISSLQPDDFATYYCQQYSNYPLTFGGGTKLEIK	81.2
Antibody 26, scFv (scFv, V domains shown) VH: QVQLQQSGAEVKKPGTSVKVSCKASGGTFSSYAISWVRQAPGQGLEWMGGIIPIFGTANYAQKFQGRVTITADESTSTAYMELSSLRSEDTAVYYCAREKRQWLEGHFDYWGRGTPVTVSS VL: DIQMTQSPSFLSASIGDRVTITCRASEGIYHTLAWYQQKPGKAPKLLIYRASSLASGAPSRFSGSGSGTDFTLTISSLQPDDFATYYCQQYSNYPLTFGGGTKLEIK	61.4
Antibody 04, scFv (scFv, V domains shown) VH: QVRLQQSGAEVKKPGSSVKVSCKASGGTFSSYAISWVRQAPGQGLEWMGGIIPTFGTANYAQKFRGRVTITANESTSTAYMELSGLRSEDTAVYYCAREKRQWLEGRFDYWGRGTLVTVSS VL: DIQMTQSPSFLSASIGDRITITCRASEGIYHSLAWYQQKPGKAPKLLIHRATSLASGTPSRFGGSGSGTDFALTISSLQPDDFATYYCQQYSNYPLTFGGGTKLEIK	51.4
Antibody 07, scFv (scFv, V domains shown) VH: QVQLQQSGAEVKKPGSSVKVSCKASGGTFSSYAISWVRQAPGQGLEWVGGIIPTFGTANYAQKFQGRVTITADESTSTAYMELSGLRSEDTAVYYCAREKRQWLEGHFDYWGRGTPVTVSS VL: DIQMAQSPSFLSASIGDRVTITCRASEGIYHELAWYQQKPGKAPKLLIYRASSLASGAPSRFSGSGSGTDFTLTISSLQPDDFATYYCQQYSNYPLTFGGGTKLEIK	0.5
Antibody 27, IgG1, not germlined (antibody, V domains shown, whole IgG1; also called Ab 27) VH: QVQLQQSGAEVKKPGSSVKVSCKASGGAFSSYAISWVRQAPGQGLEWMGGIIPTFGTANYAQKFQGRVTITADESTSTAYMELSGLRSEDTAVYYCAREKRQWLEGHFDYWGRGTPVTVSS VL: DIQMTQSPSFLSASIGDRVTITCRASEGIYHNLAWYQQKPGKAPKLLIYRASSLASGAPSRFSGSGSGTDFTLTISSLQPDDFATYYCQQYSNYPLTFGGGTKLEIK	5.4

Batch request: IC50 ratio rat/human per item, same order as input.
1. Antibody 11, scFv (scFv, V domains shown) VH: QVQLQQSGAEVKKPGSSVKVSCKASGGTFSSYAISWMRQAPGQGLEWMGGIIPIFGTANYAQKFQGRVTITADESTSTAYMELSGLRSEDTAVYYCAREKRQWLEGHFDYWGRGTPVTVSS VL: DIQMIQSPSFLSASTGDRVTITCQASEGIYHELAWYQQKPGKAPKLLIYRASSLASGAPSRFSGSGSGTDFTLTISSLQPDDFATYYCQQYSNYPLTFGGGTKLEIK
2. Antibody 24, scFv (scFv, V domains shown) VH: QVQLQQSGAEVKKPGSSVKVSCKASGGTFSSYAISWVRQAPGQGLEWMGGIIPTFVTANYAQKFQGRVSITADESTSTAYMELSGLRSEDTAVYYCAREKRQWLEGHFDYWGRGTPVTVSS VL: DIQMTQSPSFLSASIGDRVTITCRASEGIYHALAWYQQKPGKAPKLLIYRASSLASGAPSRFSGSGSGTDFTLTISSLQPDDFATYYCQQYSNYPLTFGGGTKLEIK
3. Antibody 06, scFv (scFv, V domains shown) VH: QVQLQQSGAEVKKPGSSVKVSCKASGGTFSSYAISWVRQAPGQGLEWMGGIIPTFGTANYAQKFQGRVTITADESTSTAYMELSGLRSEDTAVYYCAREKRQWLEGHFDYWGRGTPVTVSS VL: DIQMTQSPSFLSASIGDRVTITCRASEGIYHELAWYQQKPGKAPKLLIYRASSLASGAPSRFSGSGSGTDFTLTISSLQPDDFATYYCQQYSNYPLTFGRGTKLEIK
4. Antibody 01, scFv (scFv, V domains shown) VH: QVQLVQSGAEVKKPGSSVKVSCKASGGTFSSYAISWVRQAPGQGLEWMGGIIPIFGTANYAQKFQGRVTITADESTSTAYMELSSLRSEDTAVYYCAREKRQWLEGHFDYWGRGTLVTVSS VL: DIQMTQSPSTLSASVGDRVTITCRASEGIYRSLAWYQQKPGKAPKLLIYKASSLASGVPSRFSGSGSGTEFTLTISSLQPDDFATYYCQQYSNYPLTFGGGTKVEIK

Solution:
1: 0.6; 2: 39.3; 3: 0.5; 4: 60.5
